MEASURED TARGET: GST-PPARG-LBD (Homo sapiens (Human), UniProt P37231)
PROTOCOL NOTES: Lanthascreen PPARG competitive binding assay (Invitrogen, TR-FRET)
CONDITION CONTEXT: Lanthascreen competitive binding; NA = not active; inc = incomplete curve; read-out: IC50 (nM) Lantha
PROPERTY MEASURED: IC50 (nM)
Numbers only, in nM.

Some solved entries appear below for comparison.
SUBSTANCE SMILES	NUMERIC VALUE
Cc1c(C)n(Cc2ccc(-c3ccccc3C(=O)O)cc2)c2ccc(C(=O)N[C@@H](C)c3cc(C(F)(F)F)ccc3C(F)(F)F)cc12	9
Cc1c(C)n(Cc2ccc(-c3ccccc3C(=O)O)cc2)c2ccc(C(=O)NCc3ccccc3Br)cc12	17

**Q:** Please look up its IC50: "Cc1c(C)n(Cc2ccc(-c3ccccc3-c3n[nH]c(=O)o3)cc2)c2ccc(C(=O)N[C@@H](C)c3cccc(C(C)C)c3)cc12"
**A:** 7

###

Task for the reader: assign each of the following molecules its reported EC50.
MEASURED TARGET: Gal-4-PPAR (human PPAR LBD fused to GAL4 DNA-binding domain) (Homo sapiens (Human), UniProt P37231)
Sequence (P37231 238-503): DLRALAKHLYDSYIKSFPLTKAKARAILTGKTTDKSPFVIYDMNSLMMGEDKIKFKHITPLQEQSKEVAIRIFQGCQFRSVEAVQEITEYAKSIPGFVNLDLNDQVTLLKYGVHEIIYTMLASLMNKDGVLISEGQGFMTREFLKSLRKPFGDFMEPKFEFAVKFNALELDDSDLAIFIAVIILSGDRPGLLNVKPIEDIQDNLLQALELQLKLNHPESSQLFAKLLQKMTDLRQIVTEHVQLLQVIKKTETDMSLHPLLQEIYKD
PROTOCOL NOTES: GAL4-PPARG LBD / UAS-luciferase transactivation assay in HEK 293T cells
Type: cell-based
CONDITION CONTEXT: GAL4 transactivation, HEK 293T cells; NA = not active; read-out: EC50 (nM) GAL4
Answer format: number, then unit.

SUBSTANCE SMILES	EC50
Cc1c(C)n(Cc2ccc(-c3ccccc3C(=O)O)cc2)c2ccc(C(=O)N[C@H](C)c3cccc(Cl)c3Cl)cc12	388 nM
Cc1c(C)n(Cc2ccc(-c3ccccc3C(=O)O)cc2)c2ccc(C(=O)N[C@@H](C)c3cccc(OC(C)C)c3)cc12	2750 nM
Cc1c(C)n(Cc2ccc(-c3ccccc3C(=O)O)cc2)c2ccc(C(=O)N[C@@H](C)C3CCN(C(=O)OCc4ccccc4)CC3)cc12	1750 nM
Cc1c(C)n(Cc2ccc(-c3ccccc3C(=O)O)cc2)c2ccc(C(=O)N[C@H](C)c3ccncc3)cc12	608 nM
CC[C@@H](NC(=O)c1ccc2c(c1)c(C)c(C)n2Cc1ccccc1-c1cccc(C(=O)O)c1)c1ccccc1	191 nM
CC[C@H](NC(=O)c1ccc2c(ccn2Cc2ccccc2-c2cccc(C(=O)O)c2)c1)c1ccccc1	1000 nM

**Q:** Please give the measured EC50 for this molecule: "CC[C@@H](NC(=O)c1ccc2c(ccn2Cc2ccccc2-c2ccc(C(=O)O)cc2)c1)c1ccccc1"
**A:** 51 nM

###

MEASURED TARGET: Gal-4-PPAR (human PPAR LBD fused to GAL4 DNA-binding domain) (Homo sapiens (Human), UniProt P37231)
PROTOCOL NOTES: GAL4-PPARG LBD / UAS-luciferase transactivation assay in HEK 293T cells
Assay type: cell-based
CONDITION CONTEXT: GAL4 transactivation, HEK 293T cells; NA = not active; read-out: EC50 (nM) GAL4
Categorize each record by its EC50 using LOW (below 100 nM), MID (100 nM to below 300 nM), HIGH (300 nM or more)

Take a look at these entries with their results.
MOLECULE	CLASS LABEL
Cc1c(C)n(Cc2ccc(-c3ccccc3C(=O)O)cc2)c2ccc(C(=O)N[C@@H](C)c3ccc(F)c(F)c3)cc12	MID
COc1cc(OC)cc([C@H](C)NC(=O)c2ccc3c(c2)c(C)c(C)n3Cc2ccc(-c3ccccc3C(=O)O)cc2)c1	HIGH
Cc1c(C)n(Cc2ccc(-c3ccccc3C(=O)O)cc2)c2ccc(C(=O)N[C@@H](C)c3cccc(F)c3)cc12	MID

**Q:** Returns: class label. Input: "Cc1c(C)n(Cc2ccc(-c3ccccc3C(=O)O)cc2)c2ccc(C(=O)N[C@H](C)c3c(F)ccc(F)c3F)cc12"
**A:** LOW

**Q:** What about this molecule? "Cc1c(C)n(Cc2ccc(-c3ccccc3-c3nnn[nH]3)cc2)c2ccc(C(=O)N[C@H](C)c3cccc(Br)c3)cc12"
**A:** LOW

**Q:** Lookup "Cc1c(C)n(Cc2ccc(-c3ccccc3C(=O)O)cc2)c2ccc(C(=O)N[C@H](C)c3ccc(C(F)(F)F)c(F)c3)cc12"
**A:** LOW

**Q:** Now this one: "Cc1c(C)n(Cc2ccc(-c3ccccc3C(=O)O)cc2)c2ccc(C(=O)N[C@@H](C)c3ccc(C4CC4)cn3)cc12"
**A:** LOW

**Q:** What about "COc1ccc(F)cc1[C@@H](C)NC(=O)c1ccc2c(c1)c(C)c(C)n2Cc1ccc(-c2ccccc2C(=O)O)cc1" ?
**A:** HIGH

**Q:** Next record, please: "COc1ccccc1[C@H](C)NC(=O)c1ccc2c(c1)c(C)c(C)n2Cc1ccc(-c2ccccc2C(=O)O)cc1"
**A:** HIGH

**Q:** Next record, please: "COc1cc(C(F)(F)F)ccc1[C@H](C)NC(=O)c1ccc2c(c1)c(C)c(C)n2Cc1ccc(-c2ccccc2C(=O)O)cc1"
**A:** HIGH

###

MEASURED TARGET: GST-PPARG-LBD (Homo sapiens (Human), UniProt P37231)
PROTOCOL NOTES: Lanthascreen PPARG competitive binding assay (Invitrogen, TR-FRET)
CONDITION CONTEXT: Lanthascreen competitive binding; NA = not active; inc = incomplete curve; read-out: IC50 (nM) Lantha
Please assign n whenever IC50 is at or above 60 nM, and y whenever it is below.

**Q:** Take the compound Cc1c(C)n(Cc2ccc(-c3ccccc3C(=O)O)cc2)c2ccc(C(=O)NCCN3CCOCC3)cc12 [Example 85] and say whether its IC50 is less than 60 nM.
**A:** n

**Q:** Now consider C[C@H](NC(=O)c1ccc2c(ccn2Cc2ccc(-c3cccc(C(=O)O)c3)cc2)c1)c1ccc([N+](=O)[O-])cc1 [Example 60] .
**A:** n

**Q:** For Cc1c(C)n(Cc2ccc(-c3ccccc3C(=O)O)cc2)c2ccc(C(=O)NC(C)(C)c3ccccc3)cc12 [compound 25] then?
**A:** y

**Q:** Also, Cc1cc(Cl)ccc1[C@H](C)NC(=O)c1ccc2c(c1)c(C)c(C)n2Cc1ccc(-c2ccccc2C(=O)O)cc1 [Example 226] please.
**A:** y

**Q:** Also, Cc1c(C)n(Cc2ccc(-c3ccccc3C(=O)O)cc2)c2ccc(C(=O)N(C)Cc3ccccc3)cc12 [compound 3] please.
**A:** n

###

MEASURED TARGET: Gal-4-PPAR (human PPAR LBD fused to GAL4 DNA-binding domain) (Homo sapiens (Human), UniProt P37231)
PROTOCOL NOTES: GAL4-PPARG LBD / UAS-luciferase transactivation assay in HEK 293T cells
Format: cell-based
CONDITION CONTEXT: GAL4 transactivation, HEK 293T cells; NA = not active; read-out: EC50 (nM) GAL4
PROPERTY MEASURED: EC50 (nM)
Answers are plain numbers, in nM.

COMPOUND	NUMERIC VALUE
Cc1c(C)n(Cc2ccc(-c3ccccc3C(=O)O)cc2)c2ccc(C(=O)N[C@H](C)c3cc(F)ccc3C(F)(F)F)cc12 [Example 239]	169
Cc1c(C)n(Cc2ccc(-c3ccccc3C(=O)O)cc2)c2ccc(C(=O)N[C@H](C)c3cccc(Br)n3)cc12 [Example 271]	52

Next:
**Q:** Quick one: EC50 for CC[C@@H](NC(=O)c1ccc2c(ccn2Cc2ccccc2-c2cccc(C(=O)O)c2)c1)c1ccccc1 [Example 192] ?
**A:** 27

###

MEASURED TARGET: GST-PPARG-LBD (Homo sapiens (Human), UniProt P37231)
PROTOCOL NOTES: Lanthascreen PPARG competitive binding assay (Invitrogen, TR-FRET)
CONDITION CONTEXT: Lanthascreen competitive binding; NA = not active; inc = incomplete curve; read-out: IC50 (nM) Lantha
Protocol: Lanthascreen PPARG Competitive Binding Assay (Invitrogen) The assay was performed according to manufacturer protocol. […] Experiment was performed in triplicate, and incubated for 2 hours in the dark prior to assay read in Perkin Elmer ViewLux ultra HTS microplate reader. FRET signal was measured by excitation at 340 nm and emission at 520 nm for fluorescein and 490 nm for terbium. Fold change over DMSO was calculated using GraphPad Prism Software (La Jolla, Calif.) by calculating 520 nm/490 nm ratio. […]
PROPERTY MEASURED: IC50

COMPOUND	MEASURED TARGET	IC50
CC(=O)NS(=O)(=O)c1ccccc1-c1ccc(Cn2c(C)c(C)c3cc(C(=O)N[C@@H](C)c4cccc(C(C)C)c4)ccc32)cc1	GST-PPARG-LBD (Homo sapiens (Human), UniProt P37231)	> 1000 nM

# map each compound to its IC50
1. Cc1c(C)n(Cc2ccc(-c3ccccc3C(=O)O)cc2)c2ccc(C(=O)N[C@@H](C)c3ccc4ccccc4c3)cc12
2. CCC(NC(=O)c1ccc2c(ccn2Cc2ccccc2-c2ccccc2C(=O)O)c1)c1ccccc1 (stereo not drawn)

**A:**
1: > 1000 nM; 2: > 1000 nM

Attribution: patent US8957093B2
